Reference for the values: PubChem BioAssay (NCI)

# Tested on: NCI-H460 lung
# EXPERIMENTAL PROTOCOL: NCI-60 one-dose screen, 48 h (100 = growth as untreated, 0 = no growth, -100 = all killed)
# CONDITION DESCRIPTION: 10 µM unless noted
The panel holds about 83,000 compounds, 20% with a hit somewhere; the sample as a whole holds those more often. The source made the active and inactive calls. Rule for the calls: active = growth percent below 10; inactive = the rest.
ASSAY METRIC: growth

[[record]]
compound = "CC(=O)c1cccc(N(C)S(=O)(=O)c2ccc(C)cc2)c1"
val = "104% (inactive)"

[[record]]
compound = "CC(CCC#N)(CCC#N)C(=O)c1ccccc1"
val = "104% (inactive)"

[[record]]
compound = "OCCOc1ccc(-c2cc(-c3ccccn3)nc(-c3ccccn3)c2)cc1"
val = "0.477% (active)"

[[record]]
compound = "CN(C)c1ccc(O)c2c1CC1CC3C(N(C)C)C(=O)C(C(N)=O)=C(O)C3(O)C(=O)C1=C2O (configuration not stated)"
val = "29.1% (inactive)"

[[record]]
compound = "Cc1ccc(OC(=O)c2ccccc2)cc1"
val = "106% (inactive)"

[[record]]
compound = "NNC(=O)CCCCl"
val = "111% (inactive)"

[[record]]
compound = "C=CCC(OC(C)=O)c1ccc(OC)c(OC)c1 (configuration not stated)"
val = "106% (inactive)"

[[record]]
compound = "O=C(CCl)Nc1ccccc1SCc1cc(Cl)cc2c1OCOC2"
val = "105% (inactive)"

[[record]]
compound = "Oc1cc2ccccc2c(-c2c(O)c(O)cc3ccccc23)c1O"
val = "9.65% (active)"

[[record]]
compound = "COC(=O)c1ccccc1C(=O)c1c(C)cc(C)cc1C"
val = "105% (inactive)"

[[record]]
compound = "CC(C)c1ccc(C(=O)OCCCl)cc1"
val = "105% (inactive)"

[[record]]
compound = "CS(=O)CC(=N\\O)/C(CS(C)=O)=N\\O (configuration not stated)"
val = "111% (inactive)"

[[record]]
compound = "Cc1ccc(N2C(=O)c3cccc4c(N)c(S(=O)(=O)O)cc(c34)C2=O)cc1"
val = "104% (inactive)"

[[record]]
compound = "BrCc1cccc(C[P+](c2ccccc2)(c2ccccc2)c2ccccc2)c1"
val = "48.5% (inactive)"

[[record]]
compound = "O=C1CSc2ccccc2N1"
val = "107% (inactive)"

[[record]]
compound = "CCC(C)c1c(N)n(S(=O)(=O)c2ccc(C)cc2)oc1=O (configuration not stated)"
val = "105% (inactive)"

[[record]]
compound = "CCCCNC(=O)c1ccc(OCC)cc1"
val = "103% (inactive)"

[[record]]
compound = "CC(=O)OC(C)c1cccc(C#N)c1 (configuration not stated)"
val = "108% (inactive)"

[[record]]
compound = "Nc1nc(Cl)cc(Cl)n1"
val = "106% (inactive)"

[[record]]
compound = "CC(C)C1CCC(C)C(O)C1 (configuration not stated)"
val = "108% (inactive)"

[[record]]
compound = "CC(=O)C1C(=O)C(=O)N(c2ccc(Cl)c(Cl)c2)C1=O (configuration not stated)"
val = "109% (inactive)"

[[record]]
compound = "NC(=O)N1CCOCC1"
val = "108% (inactive)"

[[record]]
compound = "CSCCC(NC(=O)C(Cl)Cl)C(=O)O (configuration not stated)"
val = "114% (inactive)"

[[record]]
compound = "O=C(O)c1cccc(-n2ncc(Cl)c(Cl)c2=O)c1"
val = "101% (inactive)"

[[record]]
compound = "Nc1cccc2cccc(O)c12"
val = "86.5% (inactive)"

[[record]]
compound = "O=c1[nH]c(=O)c2cc(Cl)cc(Cl)c2[nH]1"
val = "112% (inactive)"

[[record]]
compound = "CCCCCCCCCc1ccc(OC(C)=O)cc1"
val = "103% (inactive)"

[[record]]
compound = "O=S(=O)(O)c1cccnc1"
val = "109% (inactive)"

[[record]]
compound = "Cn1c(=O)c2[nH]c(CCCCC(=O)O)nc2n(C)c1=O"
val = "116% (inactive)"

[[record]]
compound = "CN(C)CCOC(=O)Nc1ccc(Cc2ccc(NC(=O)OCCN(C)C)cc2)cc1"
val = "92% [100 µM] (inactive)"

[[record]]
compound = "O=C(OC1CCCC1)c1ccccc1Cl"
val = "101% (inactive)"

[[record]]
compound = "O=C(OCC1CCCO1)c1ccc([N+](=O)[O-])cc1 (configuration not stated)"
val = "95.5% (inactive)"

[[record]]
compound = "c1cc(CNCCNCc2ccncc2)ccn1"
val = "116% (inactive)"

[[record]]
compound = "CCCCCCCCCCC(=O)CCCCCCCCCC"
val = "102% (inactive)"

[[record]]
compound = "CC(CO)(CO)C(=O)O"
val = "105% (inactive)"

[[record]]
compound = "CCN(C(C)=O)c1ccc([N+](=O)[O-])cc1"
val = "104% (inactive)"

[[record]]
compound = "CC(=O)[C@@]1(O)CC[C@H]2[C@@H]3CC[C@@H]4CC(=O)CC[C@]4(C)[C@H]3[C@@H](O)C[C@@]21C"
val = "110% (inactive)"

